System: Human papillomavirus type 1a protein E7 (residues 44-93)
measurement_protocol: HPV1a E7 fragment binders on microarrays, primary screen, biochemical, small-molecule microarray, residues 44-93, 635 nm fluorescence (AID 1108);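 note: E7 fragment applied at 1 µg/mL in TBST for 1 h at 4 C; score combines spot fluorescence with its signal to noise ratio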
test_parameters: small-molecule microarray binding, fluorescence 635 nm; higher = more signal
Label true (1) for high-side composite z-score (at or above 0.5) and false (0) for low-side composite z-score (below it).

{"molecule": "NC(=O)N1C(=O)C2C(C1=O)C1C=C(CCCO)C2C(c2cccs2)N1Cc1cccc(OC(F)(F)F)c1 (stereo not drawn)", "discrete_label": "true (1)"}
{"molecule": "CCCC[C@@H]1C[C@H]1[C@@H](NC(=O)c1cccs1)c1ccc(C(F)(F)F)cc1", "discrete_label": "false (0)"}
{"molecule": "COC(=O)[C@@]1(Cc2ccc(F)cc2)[C@H]2c3cc(C(=O)N(C)C)n(CCc4ccc(O)c(OC)c4)c3C[C@H]2CN1C(=O)c1ccccc1", "discrete_label": "true (1)"}
{"molecule": "CCOC(=O)C[C@H]1[C@H](OC(=O)Cc2ccc3c(c2)OCO3)[C@@H](NC(=O)CC(C)C)c2cc(OCCCO)ccc2N1C(=O)Cc1ccc(OC)cc1", "discrete_label": "false (0)"}
{"molecule": "CC(C)N1CC=CC23O[C@@H]4C=CCOC(=O)[C@@H]4[C@H]2C(=O)N(CCCO)[C@@H]3C1=O (stereo partly drawn)", "discrete_label": "true (1)"}
{"molecule": "[N-]=[N+]=NCc1ccccc1[C@H]1OC(c2ccc(OCCCO)cc2)=N[C@@]1(CCS(=O)(=O)c1ccccc1)C(=O)N1CCCCC1", "discrete_label": "false (0)"}
{"molecule": "C=CCNC(=O)[C@@H]1[C@H]2C(=O)O[C@H](c3ccccc3)[C@H](c3ccccc3)N2[C@H](c2ccc(O)cc2)[C@@]12C(=O)N(C(=O)OCCOC)c1ccc(C#CC3(O)CCCCCC3)cc12", "discrete_label": "false (0)"}
{"molecule": "COC(=O)[C@@]1(Cc2ccc(F)cc2)[C@H]2c3cc(C(=O)N4CCCC4)n(CCc4ccc(O)c(O)c4)c3C[C@H]2CN1C(=O)c1ccccc1", "discrete_label": "false (0)"}
{"molecule": "CN(C)C(=O)[C@@]1(CCS(=O)(=O)c2ccccc2)N=C(c2ccc(OCCCO)cc2)O[C@H]1c1ccccc1", "discrete_label": "true (1)"}
{"molecule": "C=CCOC(=O)[C@H]1[C@@H]2C(=O)O[C@@H](c3ccccc3)[C@@H](c3ccccc3)N2[C@@H](c2ccc(OCCOC(=O)[C@H]3C[C@H]4C(=O)N[C@@H](CCCCNC(C)=O)C(=O)N4[C@H]3c3ccc(O)cc3)cc2)[C@]12C(=O)Nc1ccccc12", "discrete_label": "true (1)"}
{"molecule": "O=C(CS)NCCCCCNC(=O)[C@@H]1C[C@@H]2C(=O)N3CCC[C@H]3C(=O)N2[C@@H]1c1cccc(OCCO)c1", "discrete_label": "true (1)"}
{"molecule": "CC(c1ccccc1)C(O)C1C=CC2C(=O)N(c3ccccc3)C(=O)C2N1Nc1ccc([N+](=O)[O-])cc1 (stereo not drawn)", "discrete_label": "true (1)"}
{"molecule": "C[C@H]1NC(=O)[C@@]23C(=O)N[C@@H](Cc4ccccc4)C2[C@H](C)[C@@]2(C)O[C@H]2C3/C=C/C/C=C\\CNC(=O)[C@H](Cc2ccccc2)NC1=O (stereo partly drawn)", "discrete_label": "false (0)"}
{"molecule": "CC[C@H]1C2=C3C(CC[C@H]4C(OCc5ccc(F)cc5C(F)(F)F)OC[C@](C)([C@@H]34)N(C(=O)OC(C)(C)C)C2)C(COC)C1COC (stereo partly drawn)", "discrete_label": "true (1)"}
{"molecule": "COC(=O)[C@@]1(Cc2ccc(OC)cc2)[C@H]2c3cc(C(=O)N4CCCC4)n(Cc4cccc5ccccc45)c3C[C@H]2CN1C(=O)c1ccccc1", "discrete_label": "true (1)"}
{"molecule": "CCCCO[C@H]1C[C@H]2C(I)=C[C@@H]1C(=O)[C@]21CO1", "discrete_label": "false (0)"}
{"molecule": "O=C1NC(=O)C2C1C=CC(C(O)c1ccco1)N2Nc1ccccn1 (stereo not drawn)", "discrete_label": "false (0)"}
{"molecule": "CN(C)C(=O)[C@@]1(Cc2ccccc2CN=[N+]=[N-])N=C(c2ccc(OCCCO)cc2)O[C@H]1c1ccccc1CN=[N+]=[N-]", "discrete_label": "true (1)"}
{"molecule": "CC(C)C(=C=CC[C@H](O)c1cccc(OCCO)c1)C[C@H](O)c1cc(Cl)cc(Cl)c1O", "discrete_label": "true (1)"}
{"molecule": "COc1ccccc1CN1C(=O)c2ccccc2[C@@]2(Cc3ccccc3N(CC(F)(F)F)C2=O)[C@@H]1c1ccc(CO)cc1", "discrete_label": "true (1)"}
{"molecule": "CCCCC(=C=CC[C@@H](O)c1ccccc1OCCO)C[C@@H](O)COCc1ccccc1", "discrete_label": "false (0)"}
{"molecule": "CCOC(=O)C[C@H]1[C@H](OC(=O)c2ccc(C(=O)c3ccccc3)cc2)[C@@H](NC(=O)Cc2ccc(OC)cc2)c2cc(OCCCO)ccc2N1C(=O)c1ccccc1", "discrete_label": "false (0)"}
{"molecule": "COc1ccc(-c2nc(-c3ccccc3)c3c(c2C)CO[Si]3(C(C)C)C(C)C)cn1", "discrete_label": "false (0)"}
{"molecule": "COC(=O)[C@H](Cc1ccccc1)N1CC(/C=C/C2CC2)=C[C@H]1[C@H](O)Cc1ccccc1", "discrete_label": "false (0)"}
{"molecule": "COc1cc2c(cc1OC)CN(C(=O)[C@@H]1[C@H]3C(=O)O[C@H](c4ccccc4)[C@H](c4ccccc4)N3[C@H](c3ccc(OCCO)cc3)[C@@]13C(=O)Nc1ccccc13)CC2", "discrete_label": "true (1)"}
{"molecule": "CC(C)C(=C=CC[C@H](O)c1ccc(OCCO)cc1)C[C@H](O)c1ccccn1", "discrete_label": "true (1)"}
{"molecule": "O=C1N(Cc2ccccc2)c2ccccc2[C@@H]2OC(c3ccc(OCCCO)cc3)=N[C@]12Cc1ccccc1", "discrete_label": "true (1)"}
{"molecule": "[N-]=[N+]=NCc1ccccc1C[C@@]1(C(=O)NCc2ccccc2)N=C(c2ccc(OCCCO)cc2)O[C@@H]1c1ccccc1N=[N+]=[N-]", "discrete_label": "true (1)"}
